Reference source for all entries: the supplement of paper PMC12067926

System: Community 6
Experiment: relative growth (AUC of 72 h growth curve relative to DMSO control, dAUC) (ratio); higher = more growth (less inhibition), active = hit call of the paper;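 active = growth AUC significantly below the DMSO wells by Dunnett test; inactive = the rest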
Conditions: 20 µM
Pick one and only one: true (1) = active, false (0) = inactive

Consider the following illustrative entries.
{"COMPOUND": "CNC(=O)CSP(=S)(OC)OC", "ASSIGNED CATEGORY": "false (0)"}
{"COMPOUND": "O=C1C2CC=CCC2C(=O)N1SC(Cl)(Cl)Cl (stereo not drawn)", "ASSIGNED CATEGORY": "true (1)"}
{"COMPOUND": "CSc1nnc(C(C)(C)C)c(=O)n1N", "ASSIGNED CATEGORY": "false (0)"}
{"COMPOUND": "CCCCCCCCCCCCNC(=N)N", "ASSIGNED CATEGORY": "true (1)"}
{"COMPOUND": "O=C(O)COc1ccc(Cl)cc1Cl", "ASSIGNED CATEGORY": "false (0)"}

Please share the test call associated with CON(C)C(=O)Nc1ccc(Cl)c(Cl)c1 .
false (0)

Please share the test call associated with CC(C)N(C)S(=O)(=O)NC(=O)c1cc(-n2c(=O)cc(C(F)(F)F)n(C)c2=O)c(F)cc1Cl .
false (0)

###

Task for the reader: assign each of the following compounds its reported relative growth.
Test system: Pseudomonas 5 (Pseudomonas baetica)
Assay: relative growth (AUC of 72 h growth curve relative to DMSO control, dAUC) (ratio); higher = more growth (less inhibition), active = hit call of the paper
Conditions: 20 µM

Study these solved cases before continuing.
{"COMPOUND": "C#CCN1C(=O)COc2cc(F)c(N3C(=O)C4=C(CCCC4)C3=O)cc21", "VALUE TYPE": "relative growth", "MEASURED": "1.05 (inactive)"}
{"COMPOUND": "C#CCOc1ccc(CCNC(=O)C(OCC#C)c2ccc(Cl)cc2)cc1OC (stereo unspecified)", "VALUE TYPE": "relative growth", "MEASURED": "0.985 (inactive)"}
{"COMPOUND": "COc1cccc(C(=O)NN(C(=O)c2cc(C)cc(C)c2)C(C)(C)C)c1C", "VALUE TYPE": "relative growth", "MEASURED": "1.05 (inactive)"}
{"COMPOUND": "Cc1ccc(/N=C/N(C)/C=N/c2ccc(C)cc2C)c(C)c1", "VALUE TYPE": "relative growth", "MEASURED": "1.01 (inactive)"}
{"COMPOUND": "CCCSP(=O)(OCC)Oc1ccc(Br)cc1Cl (stereo unspecified)", "VALUE TYPE": "relative growth", "MEASURED": "1.01 (inactive)"}
{"COMPOUND": "O=C(O)COc1ccc(Cl)cc1Cl", "VALUE TYPE": "relative growth", "MEASURED": "0.997 (inactive)"}

Please state relative growth for every compound in the list that follows.
1. Nc1c([N+](=O)[O-])ccc(Oc2ccccc2)c1Cl
2. CC1(C)C(C=C(Cl)Cl)C1C(=O)OCc1cccc(Oc2ccccc2)c1 (stereo unspecified)
3. CS(=O)(=O)NC(=O)c1cc(Oc2ccc(C(F)(F)F)cc2Cl)ccc1[N+](=O)[O-]

1: 1.02 (inactive); 2: 1.05 (inactive); 3: 1.04 (inactive)

Please state relative growth for every compound in the list that follows.
1. O=C(O)c1nc(Cl)ccc1Cl
2. Cc1cc(C(C#N)c2ccc(Cl)cc2)c(Cl)cc1NC(=O)c1cc(I)cc(I)c1O (stereo unspecified)

["0.971 (inactive)", "0.844 (active)"]

###

Tested on: Community 10
Test: relative growth (AUC of 72 h growth curve relative to DMSO control, dAUC) (ratio); higher = more growth (less inhibition), active = hit call of the paper
Settings: 20 µM
Where relative growth equals or exceeds 0.9, the correct label is 1; where it does not, the label is -1.

{"MOLECULE": "CCN(CC)c1nc(C)cc(OP(=S)(OC)OC)n1", "ASSAY SYSTEM": "Community 10", "ASSIGNED CATEGORY": -1}
{"MOLECULE": "Nc1c(Cl)c(F)nc(OCC(=O)O)c1Cl", "ASSAY SYSTEM": "Community 10", "ASSIGNED CATEGORY": 1}
{"MOLECULE": "CC1(C)C(C=C(Cl)Cl)C1C(=O)OC(C#N)c1cccc(Oc2ccccc2)c1 (stereo unspecified)", "ASSAY SYSTEM": "Community 10", "ASSIGNED CATEGORY": 1}
{"MOLECULE": "Oc1ccc(Cl)cc1Cc1cc(Cl)ccc1O", "ASSAY SYSTEM": "Community 10", "ASSIGNED CATEGORY": -1}
{"MOLECULE": "CC(C)OC(=O)C(C(=O)OC(C)C)=C1SCCS1", "ASSAY SYSTEM": "Community 10", "ASSIGNED CATEGORY": -1}

Determine whether measured relative growth meets or exceeds 0.9 for CCC(CC)Nc1c([N+](=O)[O-])cc(C)c(C)c1[N+](=O)[O-]
-1

Determine whether measured relative growth meets or exceeds 0.9 for CC(C)(C)C(O)(CCc1ccc(Cl)cc1)Cn1cncn1 (stereo unspecified)
-1

Determine whether measured relative growth meets or exceeds 0.9 for O=C1c2ccccc2C(=O)N1SC(Cl)(Cl)Cl
-1

Determine whether measured relative growth meets or exceeds 0.9 for O=C1C2CC=CCC2C(=O)N1SC(Cl)(Cl)Cl (stereo unspecified)
-1

Determine whether measured relative growth meets or exceeds 0.9 for COP(=S)(OC)Oc1nc(Cl)c(Cl)cc1Cl
-1

Determine whether measured relative growth meets or exceeds 0.9 for CNC(=O)Oc1cccc2ccccc12
-1

Determine whether measured relative growth meets or exceeds 0.9 for CC1(C)C(C=C(Cl)Cl)C1C(=O)OCc1cccc(Oc2ccccc2)c1 (stereo unspecified)
-1

Determine whether measured relative growth meets or exceeds 0.9 for C[N+](C)(C)CCCl
-1

Determine whether measured relative growth meets or exceeds 0.9 for CCOP(=S)(OCC)Oc1cc(C)nc(C(C)C)n1
-1

Determine whether measured relative growth meets or exceeds 0.9 for O=C(NC(=O)c1c(F)cccc1F)Nc1ccc(OC(F)(F)C(F)OC(F)(F)F)c(Cl)c1 (stereo unspecified)
1

Determine whether measured relative growth meets or exceeds 0.9 for O=C(O)CNCP(=O)(O)O
1

###

Tested on: Arthrobacter 2 (Arthrobacter humicola)
Assay: relative growth (AUC of 72 h growth curve relative to DMSO control, dAUC) (ratio); higher = more growth (less inhibition), active = hit call of the paper;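 active = growth AUC significantly below the DMSO wells by Dunnett test; inactive = the rest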
Settings: 20 µM
Pick one and only one: active, inactive

Please share the test call associated with CC(C)N1C(=O)N(c2ccccc2)CS/C1=N\C(C)(C)C .
active

###

Tested on: Hymenobacter 1 (Hymenobacter glaciei)
Assay: relative growth (AUC of 72 h growth curve relative to DMSO control, dAUC) (ratio); higher = more growth (less inhibition), active = hit call of the paper;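 active = growth AUC significantly below the DMSO wells by Dunnett test; inactive = the rest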
Details: 20 µM
Pick one and only one: True (active), False (inactive)

Please share the test call associated with COC(=O)Nc1nc2ccccc2[nH]1 .
False

Please share the test call associated with CCOC(=O)OC1=C(c2cc(C)ccc2C)C(=O)N[C@]12CC[C@@H](OC)CC2 .
False

###

Task for the reader: assign each of the following molecules its reported relative growth.
Test system: Arthrobacter 3 (Arthrobacter sp.)
Assay: relative growth (AUC of 72 h growth curve relative to DMSO control, dAUC) (ratio); higher = more growth (less inhibition), active = hit call of the paper
Conditions: 20 µM
Numbers only.

Study these solved cases before continuing.
{"MOLECULE": "C#CCN1C(=O)COc2cc(F)c(N3C(=O)C4=C(CCCC4)C3=O)cc21", "relative growth": 0.979}
{"MOLECULE": "CC(Oc1ccc(Oc2ncc(C(F)(F)F)cc2Cl)cc1)C(=O)O (stereo unspecified)", "relative growth": 1.08}
{"MOLECULE": "O=C(O)c1nc(Cl)ccc1Cl", "relative growth": 0.963}
{"MOLECULE": "CCc1nn(C)c(C(=O)NCc2ccc(Oc3ccc(C)cc3)cc2)c1Cl", "relative growth": 1.02}
{"MOLECULE": "CC1(C)[C@H](/C=C(\\Cl)C(F)(F)F)[C@@H]1C(=O)OC(C#N)c1cccc(Oc2ccccc2)c1 (stereo partly specified)", "relative growth": 0.955}

Read the next record carefully.
Which relative growth reading was recorded for the molecule CCC(CC)Nc1c([N+](=O)[O-])cc(C)c(C)c1[N+](=O)[O-] ?
1.02

###

Tested on: Community 4
Experiment: relative growth (AUC of 72 h growth curve relative to DMSO control, dAUC) (ratio); higher = more growth (less inhibition), active = hit call of the paper
Conditions: 20 µM
Task for the reader: assign each of the following molecules its reported relative growth.
Answers are plain numbers.

Study these solved cases before continuing.
{"SMILES INPUT": "CCOCn1c(-c2ccc(Cl)cc2)c(C#N)c(Br)c1C(F)(F)F", "relative growth": 1.07}
{"SMILES INPUT": "C[C@@H]1[C@@H](c2ccc(Cl)cc2)SC(=O)N1C(=O)NC1CCCCC1", "relative growth": 0.946}
{"SMILES INPUT": "COC(=O)c1ccccc1S(=O)(=O)NC(=O)Nc1nc(C)nc(OC)n1", "relative growth": 1.16}

Read the next record carefully.
Which relative growth reading was recorded for the molecule CCOCN(C(=O)CCl)c1c(C)cccc1CC ?
0.952
